Ref: patent EP0994871B1

Assay: Lambda max of the activated (colored) form in a diethylene glycol bis(allyl carbonate) composition
Assay type: physicochemical
Conditions: wavelength in the visible spectrum of maximum absorption of the activated (colored) form in a diethylene glycol bis(allyl carbonate) composition
reportedEndpoint: LAMBDA MAX (VISIBLE) (nm)

• COc1ccc(C2(c3ccc(OC)cc3)C=Cc3c(Sc4ccccc4)c(OC(C)=O)c4ccccc4c3O2)cc1 [Example 4] = 516
• COc1ccc(C2(c3ccc(OC)cc3)C=Cc3c(-c4cccn4C)c(OC(C)=O)c4ccccc4c3O2)cc1 [Example 1] = 513
• CC(=O)Oc1c(Sc2ccccc2)c2c(c3ccccc13)OC1(C=C2)C2CC3CC(C2)CC1C3 (stereo not drawn) [Example 8] = 459
• COc1ccc(C2(c3ccc(OC)cc3)C=Cc3c(C(O)(c4ccccc4)c4ccccc4)c(O)c4ccccc4c3O2)cc1 [Example 10] = 482
• COc1c(C)c2c(c3ccccc13)OC1(C=C2)C2CC3CC(C2)CC1C3 (stereo not drawn) [Example 9] = 462
• COc1ccc(C2(c3ccc(OC)cc3)C=Cc3c(Cl)c(OC(C)=O)c4ccccc4c3O2)cc1 [Example 5] = 462
